experimental target: UniProt:J9SQF3
assay remarks: TRPM3 ion channel driven Ca2+ uptake, Fluo-4 AM assay, mTRPM3alpha2 overexpressing flip-in HEK293 cells stimulated with pregnenolone sulfate
Format: cell-based
condition context: PS (50 μM) stimulated, cpds. 500-599
pIC50: −log10 of the molar value.
Some molecules, each annotated with its measured pIC50.

Record excerpt, results attached:
INSERT INTO results (molecule, experimental_target, result) VALUES
  ('Cc1ccc(COc2ccc3oc(C)c(C(=O)NC4CCNCC4(F)F)c3c2)nn1 (single isomer, unassigned) [cpd 556-En 1]', 'UniProt:J9SQF3', '4.70 to 6.00'),
  ('Cc1ncsc1COc1ccc2oc(C)c(C(=O)NC3(CO)CCCOC3)c2c1 (single isomer, unassigned) [cpd 532-En 1]', 'UniProt:J9SQF3', '> 6.00');

Write down the reported pIC50 (system: UniProt:J9SQF3) of Cc1oc2ccc(OCc3ccc(F)cn3)cc2c1C(=O)NC1CCNCC1(F)F (single isomer, unassigned) [cpd 568-En 2] 4.70 to 6.00

For UniProt:J9SQF3, give pIC50 of the listed molecule: Cc1oc2ccc(OCc3nccs3)cc2c1C(=O)NC1(CO)COC1 [compound 527] > 6.00

Answer with pIC50 of Cc1cnc(COc2ccc3oc(C)c(C(=O)NC4CCNCC4(F)F)c3c2)s1 (single isomer, unassigned) [cpd 555-En 2] measured for UniProt:J9SQF3. 4.70 to 6.00

Answer with pIC50 of COc1ncccc1COc1ccc2oc(C)c(C(=O)NC3(CO)CCOC3)c2c1 (single isomer, unassigned) [cpd 536-En 1] measured for UniProt:J9SQF3. > 6.00

Find pIC50 for Cc1oc2ccc(OCc3cccnc3C(F)(F)F)c(C)c2c1C(=O)NC1CCNCC1(F)F (single isomer, unassigned) [cpd 538-En 1] on UniProt:J9SQF3 and write it down. 4.70 to 6.00

Fill in pIC50 for Cc1oc2ccc(OCc3cccnc3C(F)(F)F)cc2c1C(=O)NC1CCNCC1(F)F (single isomer, unassigned) [cpd 546-En 1] tested with UniProt:J9SQF3. > 6.00

# assay system UniProt:J9SQF3: give pIC50 of Cc1oc2ccc(OCc3cccnc3O)cc2c1C(=O)NC1CCNCC1(F)F (single isomer, unassigned) [cpd 564-En 1] > 6.00

====

experimental target: mouse TRPM3α2 (mTRPM3) ion channel (Mus musculus (Mouse))
Sequence (J9SQF3 other isoform, or with tags, fused parts or gaps): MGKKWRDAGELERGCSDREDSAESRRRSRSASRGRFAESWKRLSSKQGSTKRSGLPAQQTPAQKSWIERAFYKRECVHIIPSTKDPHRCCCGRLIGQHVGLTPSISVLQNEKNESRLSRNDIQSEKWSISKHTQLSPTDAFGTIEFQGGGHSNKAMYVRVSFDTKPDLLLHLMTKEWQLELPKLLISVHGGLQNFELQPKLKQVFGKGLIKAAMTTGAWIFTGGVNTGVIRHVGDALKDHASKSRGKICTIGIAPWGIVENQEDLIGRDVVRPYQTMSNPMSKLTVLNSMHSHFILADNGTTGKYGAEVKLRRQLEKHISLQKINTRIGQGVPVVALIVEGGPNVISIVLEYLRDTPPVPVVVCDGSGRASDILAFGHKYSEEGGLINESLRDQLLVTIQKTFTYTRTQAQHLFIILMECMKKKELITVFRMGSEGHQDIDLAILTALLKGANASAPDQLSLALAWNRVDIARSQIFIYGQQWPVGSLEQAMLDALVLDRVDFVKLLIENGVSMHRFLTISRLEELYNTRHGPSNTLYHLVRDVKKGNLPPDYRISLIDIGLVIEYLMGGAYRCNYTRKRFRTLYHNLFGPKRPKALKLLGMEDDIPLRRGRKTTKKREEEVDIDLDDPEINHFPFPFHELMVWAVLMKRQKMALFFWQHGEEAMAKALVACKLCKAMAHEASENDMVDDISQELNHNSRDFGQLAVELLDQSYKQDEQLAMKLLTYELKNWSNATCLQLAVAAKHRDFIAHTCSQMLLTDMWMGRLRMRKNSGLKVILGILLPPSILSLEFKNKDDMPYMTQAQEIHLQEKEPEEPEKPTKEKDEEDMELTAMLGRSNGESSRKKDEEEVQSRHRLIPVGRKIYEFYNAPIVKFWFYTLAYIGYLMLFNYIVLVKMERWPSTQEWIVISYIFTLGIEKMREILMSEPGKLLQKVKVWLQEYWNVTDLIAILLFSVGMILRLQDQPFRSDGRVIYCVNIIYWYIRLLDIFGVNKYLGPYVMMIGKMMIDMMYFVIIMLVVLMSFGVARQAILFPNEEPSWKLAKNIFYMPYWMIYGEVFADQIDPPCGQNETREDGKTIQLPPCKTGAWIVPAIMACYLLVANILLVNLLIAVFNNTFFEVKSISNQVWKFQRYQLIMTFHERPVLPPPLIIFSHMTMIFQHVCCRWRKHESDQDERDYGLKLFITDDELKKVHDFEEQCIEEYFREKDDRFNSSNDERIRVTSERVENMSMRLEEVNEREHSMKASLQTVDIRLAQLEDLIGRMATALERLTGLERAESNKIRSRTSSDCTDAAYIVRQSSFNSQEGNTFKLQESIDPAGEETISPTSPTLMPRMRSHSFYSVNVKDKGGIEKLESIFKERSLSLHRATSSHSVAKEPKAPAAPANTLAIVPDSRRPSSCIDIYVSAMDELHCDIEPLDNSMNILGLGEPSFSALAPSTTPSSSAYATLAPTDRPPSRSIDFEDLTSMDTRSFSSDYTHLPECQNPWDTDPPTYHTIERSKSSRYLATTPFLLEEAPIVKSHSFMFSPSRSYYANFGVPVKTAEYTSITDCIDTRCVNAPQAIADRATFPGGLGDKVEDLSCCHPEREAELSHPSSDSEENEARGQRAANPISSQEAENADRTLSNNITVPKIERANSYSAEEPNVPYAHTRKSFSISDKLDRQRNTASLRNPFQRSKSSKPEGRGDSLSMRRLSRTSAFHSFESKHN
assay remarks: TRPM3 ion channel driven Ca2+ uptake, Fluo-4 AM assay, mTRPM3alpha2 overexpressing flip-in HEK293 cells stimulated with pregnenolone sulfate
Type: cell-based
condition context: PS 50 μM, cpds 200-299
Description: Part B Monitoring the TRPM3 Ion Channel Driven Ca^2+ Uptake. […] For mTRPM3, the intracellular Ca^2+ was measured with a Calcium responsive dye. […] Prior the cell seeding (±2000 cells/well into a black, 384 well plate (Greiner)) the diluted compound was added in the assay plate, together with the PS dissolved in Krebs buffer containing Calcium. […] Directly after cell addition the plates were read on an Envision fluorescence reader (Perkin Elmer) by an Excitation of 485 nm and emission at 535 nm. […]
Known IC50 of a selection of compounds

Past entries and their recorded results:
INSERT INTO results (compound, recorded_endpoint, result) VALUES
  ('Cc1ncsc1COc1ccc2oc(C)c(C(=O)N[C@H](C)C(N)=O)c2c1 [compound 271]', 'IC50', '< 1 µM'),
  ('Cc1nc(COc2ccc3oc(C)c(C(=O)N[C@@H](CO)C(N)=O)c3c2)cs1 [compound 285]', 'IC50', '< 1 µM'),
  ('Cc1nc(C(F)(F)F)c(COc2ccc3oc(C)c(C(=O)N[C@@H](CO)C(N)=O)c3c2)s1 [compound 282]', 'IC50', '< 1 µM'),
  ('Cc1ncsc1COc1ccc2oc(C)c(C(=O)N[C@@H](C)C(N)=O)c2c1 [compound 279]', 'IC50', '< 1 µM'),
  ('Cc1oc2ccc(OCc3nccn3C)cc2c1C(=O)NC1CCNCC1(F)F (single isomer, unassigned) [cpd 205-En 1]', 'IC50', '1 to 20 µM'),
  ('Cc1oc2ccc(OCc3cnc(C(F)(F)F)s3)cc2c1C(=O)N[C@@H](CO)C(N)=O [compound 281]', 'IC50', '< 1 µM');

Identify the reported IC50 for the following entry. Cc1ncccc1COc1ccc2oc(C)c(C(=O)N[C@@H](CO)C(N)=O)c2c1 [compound 284] < 1 µM

Recall and state the measured IC50 for Cc1oc2ccc(OCc3nccn3C)cc2c1C(=O)NC1(CO)CCOCC1 [compound 204] . < 1 µM

// data source = patent US12209081B2
